# system_under_test: Mcl-1/Bim interaction, recombinant human Mcl-1 (171-327) (Homo sapiens)
# Construct: made in house
# Sequence (Q07820 171-327): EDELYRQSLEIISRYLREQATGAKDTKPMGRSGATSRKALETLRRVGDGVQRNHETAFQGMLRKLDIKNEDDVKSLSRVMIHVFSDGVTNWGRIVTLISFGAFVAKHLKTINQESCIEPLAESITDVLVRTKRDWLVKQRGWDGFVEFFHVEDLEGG
# test_protocol: Cell free Mcl-1: Bim Affinity Assay (Mcl-1 HTRF)
# Assay type: binding
# condition_details: cell free Mcl-1:Bim TR-FRET, recombinant human Mcl-1 (171-327)
measured_metric: IC50 (nM)
Output spec: scalar in nM, unitless text.

Let me know recorded IC50 for COCC1CC(C)C=CC(O)C2CCC2CN2CC3(CCCc4cc(Cl)ccc43)COc3ccc(cc32)C(=O)NS1(=O)=O (single isomer, unassigned) [Example 471] , thanks. 0.188

Using the record for CO[C@H]1/C=C/CC[C@@H](C[C@@H](C)O)S(=O)(=O)NC(=O)c2ccc3c(c2)N(C[C@@H]2CC[C@H]21)C[C@@]1(CCCc2cc(Cl)ccc21)CO3 (single isomer, unassigned) [Example 548] , state its measured IC50. 0.275

Read the entry O=C1NS(=O)(=O)C[C@H](CO)CCC[C@H](O)[C@@H]2CC[C@H]2CN2C[C@@]3(CCCc4cc(Cl)ccc43)COc3ccc1cc32 (single isomer, unassigned) [Example 708] and write its reported IC50. 1.12

Kindly indicate its recorded IC50. Item: O=C1NS(=O)(=O)CCOCCC[C@@H]2CC[C@H]2CN2C[C@@]3(CCCc4cc(Cl)ccc43)COc3ccc1cc32 (single isomer, unassigned) [Example 815] 1.26

Identify measured IC50 associated with C[C@@H]1[C@@H](O)C/C=C/C[C@@H]2CC[C@H]2CN2C[C@@]3(CCCc4cc(Cl)ccc43)COc3ccc(cc32)C(=O)NS1(=O)=O (single isomer, unassigned) [Example 504] 2.55

Let me know recorded IC50 for CC[C@@H]1CCCC[C@H](O)[C@@H]2CC[C@H]2CN2C[C@@]3(CCc4cc(Cl)ccc43)COc3ccc(cc32)C(=O)NS1(=O)=O (single isomer, unassigned) [Example 695] , thanks. 2.04

Look up and report measured IC50 for this entry: C[C@@H]1COCCN1CCO[C@H]1/C=C/C[C@H](C)[C@@H](C)S(=O)(=O)NC(=O)c2ccc3c(c2)N(C[C@@H]2CC[C@H]21)C[C@@]1(CCCc2cc(Cl)ccc21)CO3 [Example 523] 1.82

Return IC50 (reported value) for this compound: O=C1NS(=O)(=O)CCCCCC(=NO)C2CCC2CN2CC3(CCCc4cc(Cl)ccc43)COc3ccc1cc32 (mixture of isomers) [Example 932] 3.69

Given CC[C@@H]1CC/C=C/[C@H](OC(N)=O)[C@@H]2CC[C@H]2CN2C[C@@]3(CCCc4cc(Cl)ccc43)COc3ccc(cc32)C(=O)NS1(=O)=O [Example 610] , respond with its IC50. 0.923

Read the entry C[C@@H]1CC/C=C/C(=O)[C@@H]2CC[C@H]2CN2C[C@@]3(CCCc4cc(Cl)ccc43)COc3ccc(cc32)C(=O)NS1(=O)=O [Example 604] and write its reported IC50. 9.58

Give reported IC50 value for C[C@@H]1CCC2=NO[C@H](C2)[C@@H]2CC[C@H]2CN2C[C@@]3(CCCc4cc(Cl)ccc43)COc3ccc(cc32)C(=O)NS1(=O)=O (single isomer, unassigned) [Example 609] 3.84

Answer with the recorded IC50 of O=C1NS(=O)(=O)C/C=C/CCC[C@@H]2CC[C@H]2CN2C[C@@]3(CCCc4cc(Cl)ccc43)COc3ccc1cc32 (single isomer, unassigned) [Example 498] only. 9.03

Answer with the recorded IC50 for the compound listed here: O=C1NS(=O)(=O)CCC[C@]2(O)CCO[C@H](C2)[C@@H]2CC[C@H]2CN2C[C@@]3(CCCc4cc(Cl)ccc43)COc3ccc1cc32 (single isomer, unassigned) [Example 924] 5.07

Fill in IC50 for record O=C1NS(=O)(=O)CCOCCC[C@@H]2CC[C@H]2CN2C[C@@]3(CCc4cc(Cl)ccc43)COc3ccc1cc32 (single isomer, unassigned) [Example 816] 4.72

Output IC50 of COC(=O)CC1C(C)CC=CC(OC)C2CCC2CN2CC3(CCCc4cc(Cl)ccc43)COc3ccc(cc32)C(=O)NS1(=O)=O (single isomer, unassigned) [Example 576] 0.382

Using known records, supply IC50 for COCC[C@@H]1C[C@@H](C)/C=C/[C@H](OC)[C@@H]2CC[C@H]2CN2C[C@@]3(CCCc4cc(Cl)ccc43)COc3ccc(cc32)C(=O)NS1(=O)=O (single isomer, unassigned) [Example 484] 0.331

# return recorded IC50 for input O=C1NS(=O)(=O)CCOCC[C@H](O)[C@@H]2CC[C@H]2CN2C[C@@]3(CCCc4cc(Cl)ccc43)COc3ccc1cc32 [Example 779] 5.55

Quickly give me recorded IC50 for C[C@@H]1[C@@H](C)C/C=C/[C@H](OCCN2CCOC2=O)[C@@H]2CC[C@H]2CN2C[C@@]3(CCCc4cc(Cl)ccc43)COc3ccc(cc32)C(=O)NS1(=O)=O [Example 729] 0.311

Respond only with IC50 recorded for O=C(CO)N[C@@H]1CCCCCS(=O)(=O)NC(=O)c2ccc3c(c2)N(C[C@@H]2CC[C@H]21)C[C@@]1(CCCc2cc(Cl)ccc21)CO3 (single isomer, unassigned) [Example 939] 6.67

Name the recorded IC50 of the item C[C@@H]1[C@@H](C)C/C=C/[C@H](OCCCO)[C@@H]2CC[C@H]2CN2C[C@@]3(CCCc4cc(Cl)ccc43)COc3ccc(cc32)C(=O)NS1(=O)=O [Example 509] in your answer. 0.188

Consider the compound COC(=O)CC1CCC=CC(O)C2CCC2CN2CC3(CCCc4cc(Cl)ccc43)COc3ccc(cc32)C(=O)NS1(=O)=O (single isomer, unassigned) [Example 619] . State its measured IC50. 0.187

* * *

For each entry below, report its IC50 value.
# system_under_test: Mcl-1/Bim interaction, recombinant human Mcl-1 (171-327) (Homo sapiens)
# Construct: made in house
# test_protocol: Cell free Mcl-1: Bim Affinity Assay (Mcl-1 HTRF)
# Assay type: binding
# condition_details: TR-FRET, 0.1 nM Mcl-1 (171-327), 0.05 nM biotin-Bim (51-76)
The figure you give is taken to be in nM; do not add the unit.

Input "C[C@@H]1CC/C=C/[C@H](O[C@H]2CCOC2=O)[C@@H]2CC[C@H]2CN2C[C@@]3(CCCc4cc(Cl)ccc43)COc3ccc(cc32)C(=O)NS1(=O)=O" , output reported IC50. 0.358

Answer with reported IC50 of C[C@H]1C/C=C\[C@H](O)[C@@H]2CC[C@H]2CN2C[C@@]3(CCCc4cc(Cl)ccc43)COc3ccc(cc32)C(=O)NS(=O)(=O)[C@H]1C[C@H]1CCCO1 (single isomer, unassigned) 0.259

Hello, please tell me recorded IC50 for this one: "Cn1cnc(CO[C@@H]2/C=C/CCCS(=O)(=O)NC(=O)c3ccc4c(c3)N(C[C@@H]3CC[C@H]32)C[C@@]2(CCCc3cc(Cl)ccc32)CO4)n1" 1.32

Hello, please tell me recorded IC50 for this one: C/C=C/C1CC(=O)[C@@H]2CC[C@H]2CN2C[C@@]3(CCCc4cc(Cl)ccc43)COc3ccc(cc32)C(=O)NS(=O)(=O)[C@H](C)[C@@H](C)C1 (stereo in doubt) [Example 353] 9.09

Give the reported value of IC50 for this record: "C[C@@H]1[C@@H](C)S(=O)(=O)NC(=O)c2ccc3c(c2)N(C[C@@H]2CC[C@H]2[C@@H](O)CC[C@@H]1C)C[C@@]1(CCCc2cc(Cl)ccc21)CO3" 0.294

Supply IC50 value. Item: "CC[C@@H]1CC/C=C/[C@H](OCC(=O)NCCN(C)C)[C@@H]2CC[C@H]2CN2C[C@@]3(CCCc4cc(Cl)ccc43)COc3ccc(cc32)C(=O)NS1(=O)=O" 0.872

Please indicate IC50 recorded for "COCCO[C@H]1/C=C/C[C@H](C)N(Cc2ccc(OC)cc2)S(=O)(=O)NC(=O)c2ccc3c(c2)N(C[C@@H]2CC[C@H]21)C[C@@]1(CCCc2cc(Cl)ccc21)CO3" 7.8

Recall and state the measured IC50 for "C[C@@H]1[C@@H](C)C/C=C/[C@H](OCCBr)[C@@H]2CC[C@H]2CN2C[C@@]3(CCCc4cc(Cl)ccc43)COc3ccc(cc32)C(=O)NS1(=O)=O" . 3.92

Quickly give me recorded IC50 for "C[C@@H]1C/C=C/[C@H](O)[C@@H]2CC[C@H]2CN2C[C@@]3(CCCc4cc(Cl)ccc43)COc3ccc(cc32)C(=O)NS(=O)(=O)N1C[C@H]1CCCO1" 6.25

Provide only the value of recorded IC50 for COC(=O)[C@@H]1CC/C=C/[C@H](O)[C@@H]2CC[C@H]2CN2C[C@@]3(CCCc4cc(Cl)ccc43)COc3ccc(cc32)C(=O)NS1(=O)=O (single isomer, unassigned) 0.397

Identify measured IC50 corresponding to C[C@@H]1CS(=O)(=O)NC(=O)c2ccc3c(c2)N(C[C@@H]2CC[C@H]2C(=O)/C=C/[C@@H]1C)C[C@@]1(CCCc2cc(Cl)ccc21)CO3 (single isomer, unassigned) 9.7

State its IC50 for this compound: CC[C@@H]1CC/C=C/C(NC(C)=O)[C@@H]2CC[C@H]2CN2C[C@@]3(CCCc4cc(Cl)ccc43)COc3ccc(cc32)C(=O)NS1(=O)=O (stereo in doubt) 1.82

For "COC(=O)CCO[C@H]1/C=C/C[C@H](C)NS(=O)(=O)NC(=O)c2ccc3c(c2)N(C[C@@H]2CC[C@H]21)C[C@@]1(CCCc2cc(Cl)ccc21)CO3" , write its IC50. 1.16

Return IC50 for the following compound: "C[C@@H]1CC/C=C/[C@H](OCCS(C)(=O)=O)[C@@H]2CC[C@H]2CN2C[C@@]3(CCCc4cc(Cl)ccc43)COc3ccc(cc32)C(=O)NS1(=O)=O" 0.602

Give IC50 for the following compound: O=C1NS(=O)(=O)[C@@H]2COC[C@H]2C/C=C/[C@H](O)[C@@H]2CC[C@H]2CN2C[C@@]3(CCCc4cc(Cl)ccc43)COc3ccc1cc32 (single isomer, unassigned) 0.195
